System: Klebsiella aerogenes
MEASUREMENT PROTOCOL: Minimum inhibitory concentration against gram negative Klebsiella aerogenes (MTCC 39) using broth dilution method
Type: functional
MEASURE NAME: MIC (µg/mL)

See these solved cases before continuing.
>>> result_value("CCOc1cc2oc(-c3ccccc3)cc(=O)c2c(OCC)c1OC")
25
>>> result_value("CN[C@@H]1[C@H](O[C@H]2[C@H](O[C@H]3[C@H](O)[C@@H](O)[C@H](N=C(N)N)[C@@H](O)[C@@H]3N=C(N)N)O[C@@H](C)[C@]2(O)C=O)O[C@@H](CO)[C@H](O)[C@H]1O (stereo in doubt)")
1.56
>>> result_value("CCOc1cc2oc(-c3ccccc3)cc(=O)c2c(O)c1OC")
25
>>> result_value("COc1c(OC(=O)c2ccc(C)cc2)cc2oc(-c3ccccc3)cc(=O)c2c1O")
25
>>> result_value("CCCCCCCCCCCC(=O)Oc1cc2oc(-c3ccccc3)cc(=O)c2c(O)c1OC")
12.5

1: CCCCCCCCCCCCCCCC(=O)Oc1cc2oc(-c3ccccc3)cc(=O)c2c(O)c1OC
2: COc1c(OC(=O)c2ccccc2)cc2oc(-c3ccccc3)cc(=O)c2c1O
Prompt line: Consider 1 and 2 . Which of these has its MIC at a higher number? To answer, give the label that identifies your chosen option.
Response line: 2
(2: 25 µg/mL, 1: 12.5 µg/mL)

====

System: Staphylococcus aureus
MEASUREMENT PROTOCOL: Minimum inhibitory concentration against gram positive Staphylococcus aureus (MTCC 96) using broth dilution method
Format: functional
MEASURE NAME: MIC (µg/mL)

See these solved cases before continuing.
>>> result_value("COc1cc(C(=O)Oc2cc3oc(-c4ccccc4)cc(=O)c3c(O)c2OC)cc(OC)c1OC")
25
>>> result_value("COc1c(O)cc2oc(-c3ccccc3)cc(=O)c2c1O [OROXYLIN A]")
50
>>> result_value("CCOc1cc2oc(-c3ccccc3)cc(=O)c2c(OCC)c1OC")
25
>>> result_value("COc1c(OC(=O)c2ccccc2Cl)cc2oc(-c3ccccc3)cc(=O)c2c1O")
12.5
>>> result_value("COc1c(OC(=O)c2ccccc2)cc2oc(-c3ccccc3)cc(=O)c2c1O")
25

1: CCCCCCCCCCCCCCCC(=O)Oc1cc2oc(-c3ccccc3)cc(=O)c2c(O)c1OC
2: CCOc1cc2oc(-c3ccccc3)cc(=O)c2c(O)c1OC
Prompt line: Consider 1 and 2 . Which of these has its MIC at a higher number? To answer, give the label that identifies your chosen option.
Response line: 2
(2: 50 µg/mL, 1: 25 µg/mL)

====

Test system: Klebsiella aerogenes
MEASUREMENT PROTOCOL: Minimum inhibitory concentration against gram negative Klebsiella aerogenes (MTCC 39) using broth dilution method
Assay type: functional
MEASURE NAME: MIC (µg/mL)

See these solved cases before continuing.
>>> result_value("CCCCCCCCCCCCCC(=O)Oc1cc2oc(-c3ccccc3)cc(=O)c2c(O)c1OC")
50
>>> result_value("CCCCCC(=O)Oc1cc2oc(-c3ccccc3)cc(=O)c2c(O)c1OC")
25
>>> result_value("COc1c(OC(C)=O)cc2oc(-c3ccccc3)cc(=O)c2c1O")
50
>>> result_value("COc1cc2oc(-c3ccccc3)cc(=O)c2c(OC)c1OC")
50
>>> result_value("CCCC(=O)Oc1cc2oc(-c3ccccc3)cc(=O)c2c(O)c1OC")
25
>>> result_value("COc1c(OC(=O)c2ccccc2Cl)cc2oc(-c3ccccc3)cc(=O)c2c1O")
25
>>> result_value("COc1cc2oc(-c3ccccc3)cc(=O)c2c(O)c1OC")
50
>>> result_value("CC1(C)S[C@@H]2[C@H](NC(=O)COc3ccccc3)C(=O)N2[C@H]1C(=O)O")
6.25

I: CCCCCCCCCCCCCCCCCC(=O)Oc1cc2oc(-c3ccccc3)cc(=O)c2c(O)c1OC
II: COc1c(OC(=O)C/C=C/c2ccccc2)cc2oc(-c3ccccc3)cc(=O)c2c1O
III: COc1c(O)cc2oc(-c3ccccc3)cc(=O)c2c1O
Prompt line: Write the entries in order, lowest recorded MIC first. Provide your answer as the labels ordered per the instruction.
Response line: II, I, III
(II: 12.5 µg/mL, I: 25 µg/mL, III: 50 µg/mL)

The reported numbers originate from ChEMBL document CHEMBL1142803.
